- Target of assay: Sodium- and chloride-dependent GABA transporter 2 (Mus musculus)
- Sequence (P31649 whole entry): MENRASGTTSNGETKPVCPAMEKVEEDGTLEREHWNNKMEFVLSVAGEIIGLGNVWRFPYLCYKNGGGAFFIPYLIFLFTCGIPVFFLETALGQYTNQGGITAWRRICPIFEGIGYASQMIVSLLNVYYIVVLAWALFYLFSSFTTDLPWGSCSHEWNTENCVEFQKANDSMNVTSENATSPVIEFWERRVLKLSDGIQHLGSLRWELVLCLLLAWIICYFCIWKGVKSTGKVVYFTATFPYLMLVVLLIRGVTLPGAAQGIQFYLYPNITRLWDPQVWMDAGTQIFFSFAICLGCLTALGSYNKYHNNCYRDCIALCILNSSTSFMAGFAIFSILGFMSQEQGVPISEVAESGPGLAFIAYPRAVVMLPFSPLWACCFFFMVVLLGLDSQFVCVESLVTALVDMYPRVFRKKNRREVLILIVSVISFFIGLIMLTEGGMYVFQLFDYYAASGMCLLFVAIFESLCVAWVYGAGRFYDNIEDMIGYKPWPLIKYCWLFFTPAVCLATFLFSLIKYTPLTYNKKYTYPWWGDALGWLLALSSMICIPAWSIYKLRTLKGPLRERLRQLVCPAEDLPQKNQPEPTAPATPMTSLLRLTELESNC
- Method notes: Inhibition of mouse GAT2 expressed in HEK293 cells assessed as reduction in [3H]GABA uptake preincubated for 25 mins followed by [3H]GABA addition and measured after 10 mins by microbeta liquid scintillation counting method
Recorded metric: IC50

[
  {
    "Molecule": "COc1ccc(C(/C=C\\CN2CCCC(C(=O)O)C2)(Cc2ccccc2)c2ccc(OC)cc2)cc1 (stereo unspecified)",
    "Observed value": "30.2 µM"
  }
]

###

- Method notes: Inhibition of mouse GAT2 expressed in HEK293 cells assessed as reduction in [3H]GABA uptake preincubated for 25 mins followed by [3H]GABA addition and measured after 10 mins by microbeta liquid scintillation counting method

[
  {
    "Molecule": "COc1ccc(C(/C=C\\CN2CCCC(C(=O)O)C2)(c2ccc(OC)cc2)c2ccsc2)cc1 (stereo not drawn)",
    "Unit label": "µM",
    "IC50": 89.1
  },
  {
    "Molecule": "O=C(O)C1CCCN(CC/C=C\\C(c2ccccc2)(c2ccccc2)c2ccccc2)C1 (stereo not drawn)",
    "Unit label": "µM",
    "IC50": 55
  },
  {
    "Molecule": "COc1ccc(C(/C=C\\CN2CCCC(C(=O)O)C2)(c2ccc(OC)cc2)c2ccc3c(c2)OCO3)cc1 (stereo not drawn)",
    "Unit label": "µM",
    "IC50": 61.7
  }
]

###

- Method notes: Inhibition of mouse GAT3 expressed in HEK293 cells assessed as reduction in [3H]GABA uptake preincubated for 25 mins followed by [3H]GABA addition and measured after 4 mins by microbeta liquid scintillation counting method
pIC50: −log10 of the molar value.
# reported pIC50; entries follow

[
  {
    "Molecule": "COc1ccc(C(C/C=C\\CN2CCCC(C(=O)O)C2)(c2ccc(OC)cc2)c2ccc(OC)cc2)cc1 (configuration not stated)",
    "pIC50": 4.07
  },
  {
    "Molecule": "COc1ccc(C(/C=C\\CN2CCCC(C(=O)O)C2)(c2ccc(OC)cc2)c2ccc3c(c2)OCO3)cc1 (configuration not stated)",
    "pIC50": 4.34
  }
]
